Origin of measurements: ChEMBL document CHEMBL1155924

- test_details: Clearance in rat microsomes assessed per mg of protein at 0.5 uM
- Format: ADME, Liver, Microsome
- experimental_context: liver microsomes
experimental_readout: microsomal CLint at 0.5 µM (µL/min/mg)

Notebook: `Cc1ccc(-c2ccc3c(c2)N(c2nc4c(s2)C(=O)CC(C)(C)C4)CCO3)cn1` , microsomal CLint at 0.5 µM read as 25

Notebook: `CC1(C)CC(=O)c2sc(N3CCOCC3)nc2C1` , microsomal CLint at 0.5 µM read as 6

Notebook: `CC1(C)Cc2nc(N3CCOc4ccc(-c5ccccc5)cc43)sc2C(=O)N1` , microsomal CLint at 0.5 µM read as 39

1 = Cc1ccc(-c2ccc3c(c2)N(c2nc4c(s2)C(=O)NC(C)(C)C4)CCO3)cn1
2 = CC1(C)CC(=O)c2sc(N3CCOc4ccccc43)nc2C1
3 = Cn1cc(-c2ccc3c(c2)N(c2nc4c(s2)C(=O)CC(C)(C)C4)CCO3)cn1
Input: Please list these molecules in decreasing order of microsomal CLint at 0.5 µM. Answer by writing out the labels in the requested order.
Output: 2, 3, 1
(2: 220 µL/min/mg, 3: 39 µL/min/mg, 1: 17 µL/min/mg)

====

- Tested on: Hepatocyte
- test_details: Clearance in rat hepatocyte assessed per mg of protein at 2 uM
- Format: ADME, cell-based, Liver
- experimental_context: hepatocytes
experimental_readout: CL (µL/min/mg)

Notebook: `Cn1cc(-c2ccc3c(c2)N(c2nc4c(s2)C(=O)CC(C)(C)C4)CCO3)cn1` , CL read as 8

Notebook: `CC1(C)CC(=O)c2sc(N3CCOCC3)nc2C1` , CL read as 7

A = CC1(C)CC(=O)c2sc(N3CCOc4ccccc43)nc2C1
B = Cc1ccc(-c2ccc3c(c2)N(c2nc4c(s2)C(=O)NC(C)(C)C4)CCO3)cn1
C = CC1(C)Cc2nc(N3CCOCC3)sc2C(=O)N1
Input: Rank ascending by CL. Answer by writing out the labels in the requested order.
Output: C, B, A
(C: 1 µL/min/mg, B: 7 µL/min/mg, A: 162 µL/min/mg)

====

- test_details: Oral bioavailability in Han-Wistar rat at 3 mg/kg
- Assay type: ADME, organism-based
- experimental_context: in vivo
experimental_readout: bioavailability (%)

A = Cc1ccc(-c2ccc3c(c2)N(c2nc4c(s2)C(=O)NC(C)(C)C4)CCO3)nn1
B = Cn1cc(-c2ccc3c(c2)N(c2nc4c(s2)C(=O)NC(C)(C)C4)CCO3)cn1
Input: Smaller bioavailability value? Options are A and B // return label of chosen record
Output: A

====

- Tested on: Hepatocyte
- test_details: Clearance in rat hepatocyte assessed per mg of protein at 2 uM
- Format: ADME, cell-based, Liver
- experimental_context: hepatocytes
experimental_readout: clearance (µL/min/mg)
# number only, unit µL/min/mg dropped from output

Notebook: `Cn1cc(-c2ccc3c(c2)N(c2nc4c(s2)C(=O)NC(C)(C)C4)CCO3)cn1` , clearance read as 0

====

- test_details: Clearance in human microsomes assessed per mg of protein at 0.5 uM
- Format: ADME, Microsome
experimental_readout: microsomal CLint at 0.5 µM (µL/min/mg)

Check out these entries, answers already filled in.
Notebook: `CC1(C)Cc2nc(N3CCOCC3)sc2C(=O)N1` , microsomal CLint at 0.5 µM read as 1

Notebook: `Cn1cc(-c2ccc3c(c2)N(c2nc4c(s2)C(=O)CC(C)(C)C4)CCO3)cn1` , microsomal CLint at 0.5 µM read as 36

Notebook: `CC1(C)CC(=O)c2sc(N3CCOc4ccccc43)nc2C1` , microsomal CLint at 0.5 µM read as 47

Notebook: `CC1(C)Cc2nc(N3CCOc4ccc(-c5ccccc5)cc43)sc2C(=O)N1` , microsomal CLint at 0.5 µM read as 21

1 = Cc1ccc(-c2ccc3c(c2)N(c2nc4c(s2)C(=O)CC(C)(C)C4)CCO3)cn1
2 = Cc1ccc(-c2ccc3c(c2)N(c2nc4c(s2)C(=O)NC(C)(C)C4)CCO3)cn1
Input: Which shows the larger microsomal CLint at 0.5 µM value: 1 or 2 ? // return label of chosen record
Output: 1
(1: 48 µL/min/mg, 2: 25 µL/min/mg)

====

- target_or_test_system: Phosphatidylinositol 4,5-bisphosphate 3-kinase catalytic subunit gamma isoform (Homo sapiens)
- Sequence (P48736 whole entry, canonical isoform): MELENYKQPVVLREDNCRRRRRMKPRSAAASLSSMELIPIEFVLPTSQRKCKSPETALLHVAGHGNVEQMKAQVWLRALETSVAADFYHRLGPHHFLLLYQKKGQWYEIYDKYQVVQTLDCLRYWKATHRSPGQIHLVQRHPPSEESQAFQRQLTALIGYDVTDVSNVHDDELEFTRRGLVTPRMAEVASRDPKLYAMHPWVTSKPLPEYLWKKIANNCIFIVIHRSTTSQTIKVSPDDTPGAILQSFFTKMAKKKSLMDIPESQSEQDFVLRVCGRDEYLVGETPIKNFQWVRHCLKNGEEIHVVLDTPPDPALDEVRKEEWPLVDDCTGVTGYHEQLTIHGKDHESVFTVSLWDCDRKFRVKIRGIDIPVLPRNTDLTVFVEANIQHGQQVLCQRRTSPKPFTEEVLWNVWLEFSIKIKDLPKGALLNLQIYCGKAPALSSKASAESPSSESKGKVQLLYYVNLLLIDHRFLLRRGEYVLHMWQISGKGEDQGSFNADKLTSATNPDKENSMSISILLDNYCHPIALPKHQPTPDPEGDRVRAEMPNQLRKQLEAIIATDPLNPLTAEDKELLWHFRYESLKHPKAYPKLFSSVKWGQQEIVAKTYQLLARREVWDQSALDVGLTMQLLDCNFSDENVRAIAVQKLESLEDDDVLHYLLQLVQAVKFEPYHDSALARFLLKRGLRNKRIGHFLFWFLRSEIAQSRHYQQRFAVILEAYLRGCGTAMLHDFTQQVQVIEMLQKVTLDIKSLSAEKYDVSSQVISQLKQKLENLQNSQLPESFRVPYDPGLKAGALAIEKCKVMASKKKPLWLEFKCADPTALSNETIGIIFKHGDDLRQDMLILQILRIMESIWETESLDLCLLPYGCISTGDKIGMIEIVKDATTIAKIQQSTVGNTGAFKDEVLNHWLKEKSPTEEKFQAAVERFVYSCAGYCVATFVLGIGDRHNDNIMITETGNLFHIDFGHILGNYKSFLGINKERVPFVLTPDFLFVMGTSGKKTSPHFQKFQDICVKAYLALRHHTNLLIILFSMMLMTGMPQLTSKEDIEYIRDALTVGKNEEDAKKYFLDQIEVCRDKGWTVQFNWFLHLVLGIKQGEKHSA
- test_details: Inhibition of PI3K gamma
pIC50: −log10 of the molar value.
experimental_readout: pIC50

Notebook: `COc1ccc2c(c1)OCCN2c1nc2c(s1)C(=O)NC(C)(C)C2` , pIC50 read as 6.36

Notebook: `Cc1ccc2c(c1)N(c1nc3c(s1)C(=O)NC(C)(C)C3)CCO2` , pIC50 read as 6.21

Notebook: `CC1(C)Cc2nc(N3CCOc4cc(F)ccc43)sc2C(=O)N1` , pIC50 read as 6.45

a = CC(=O)c1ccc2c(c1)N(c1nc3c(s1)C(=O)NC(C)(C)C3)CCO2
b = Cc1ccc(-c2ccc3c(c2)N(c2nc4c(s2)C(=O)NC(C)(C)C4)CCO3)cn1
Input: Smaller pIC50 value? Options are a and b // return label of chosen record
Output: a

====

- test_details: Clearance in human microsomes assessed per mg of protein at 0.5 uM
- Format: ADME, Microsome
- experimental_context: 0.5 µM
experimental_readout: clearance (µL/min/mg)
# number only, unit µL/min/mg dropped from output

Notebook: `CC1(C)CC(=O)c2sc(N3CCOc4ccc(-c5ccccc5)cc43)nc2C1` , clearance read as 18

====

- target_or_test_system: Phosphatidylinositol 4,5-bisphosphate 3-kinase catalytic subunit alpha isoform (Homo sapiens)
- Sequence (P42336 whole entry, canonical isoform): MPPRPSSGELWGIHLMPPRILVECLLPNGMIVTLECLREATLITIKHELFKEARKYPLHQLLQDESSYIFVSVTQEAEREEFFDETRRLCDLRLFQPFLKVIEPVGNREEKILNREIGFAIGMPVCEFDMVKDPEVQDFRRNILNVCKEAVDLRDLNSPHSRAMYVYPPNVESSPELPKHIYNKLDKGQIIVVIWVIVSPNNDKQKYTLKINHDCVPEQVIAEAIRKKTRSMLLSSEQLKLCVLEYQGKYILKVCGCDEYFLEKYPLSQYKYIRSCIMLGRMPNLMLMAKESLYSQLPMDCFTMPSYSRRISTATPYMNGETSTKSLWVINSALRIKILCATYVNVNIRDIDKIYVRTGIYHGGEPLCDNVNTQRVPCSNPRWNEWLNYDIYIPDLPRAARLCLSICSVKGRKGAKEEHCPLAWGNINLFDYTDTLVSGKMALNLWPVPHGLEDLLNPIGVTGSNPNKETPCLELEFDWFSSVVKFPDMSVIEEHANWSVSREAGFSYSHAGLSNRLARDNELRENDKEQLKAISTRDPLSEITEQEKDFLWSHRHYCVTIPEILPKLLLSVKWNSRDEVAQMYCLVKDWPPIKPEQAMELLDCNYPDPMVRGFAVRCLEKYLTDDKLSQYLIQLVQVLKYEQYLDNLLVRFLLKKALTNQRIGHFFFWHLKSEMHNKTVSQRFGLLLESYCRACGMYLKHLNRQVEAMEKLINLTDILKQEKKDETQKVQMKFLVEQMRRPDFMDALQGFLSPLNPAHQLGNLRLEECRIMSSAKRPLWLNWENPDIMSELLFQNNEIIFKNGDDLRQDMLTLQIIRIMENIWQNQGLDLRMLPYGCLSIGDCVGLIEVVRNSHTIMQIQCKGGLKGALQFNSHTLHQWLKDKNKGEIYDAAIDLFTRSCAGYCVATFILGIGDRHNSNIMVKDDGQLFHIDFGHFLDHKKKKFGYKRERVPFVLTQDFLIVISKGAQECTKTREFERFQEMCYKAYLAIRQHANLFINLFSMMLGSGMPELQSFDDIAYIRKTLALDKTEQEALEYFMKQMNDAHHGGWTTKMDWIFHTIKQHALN
- test_details: Inhibition of PI3K alpha
experimental_readout: IC50 (nM)

Check out these entries, answers already filled in.
Notebook: `CC1(C)CC(=O)c2sc(N3CCOc4ccc(-c5cccnc5)cc43)nc2C1` , IC50 read as 172

Notebook: `CC1(C)Cc2nc(N3CCOCC3)sc2C(=O)N1` , IC50 read as 2370

Notebook: `CC1(C)CC(=O)c2sc(N3CCOc4ccc(Br)cc43)nc2C1` , IC50 read as 1970

Notebook: `CC1(C)Cc2nc(N3CCOc4ccc(-c5ncccn5)cc43)sc2C(=O)N1` , IC50 read as 791

Notebook: `Cc1ccc2c(c1)N(c1nc3c(s1)C(=O)NC(C)(C)C3)CCO2` , IC50 read as 1810

a = CC1(C)CC(=O)c2sc(N3CCOc4cc(Br)ccc43)nc2C1
b = CC1(C)CC(=O)c2sc(N3CCOc4ccccc43)nc2C1
Input: Smaller IC50 value? Options are a and b // return label of chosen record
Output: b

I = Cn1ccnc1-c1ccc2c(c1)N(c1nc3c(s1)C(=O)NC(C)(C)C3)CCO2
II = CC1(C)CC(=O)c2sc(N3CCOc4ccc(-c5ccncc5)cc43)nc2C1
III = Cn1cc(-c2ccc3c(c2)N(c2nc4c(s2)C(=O)CC(C)(C)C4)CCO3)cn1
IV = CC1(C)CC(=O)c2sc(N3CCOc4ncccc43)nc2C1
Input: Rank ascending by IC50. Answer by writing out the labels in the requested order.
Output: III, II, I, IV

====

- target_or_test_system: Phosphatidylinositol 4,5-bisphosphate 3-kinase catalytic subunit delta isoform (Homo sapiens, UniProt O00329)
- Sequence (O00329 whole entry, canonical isoform): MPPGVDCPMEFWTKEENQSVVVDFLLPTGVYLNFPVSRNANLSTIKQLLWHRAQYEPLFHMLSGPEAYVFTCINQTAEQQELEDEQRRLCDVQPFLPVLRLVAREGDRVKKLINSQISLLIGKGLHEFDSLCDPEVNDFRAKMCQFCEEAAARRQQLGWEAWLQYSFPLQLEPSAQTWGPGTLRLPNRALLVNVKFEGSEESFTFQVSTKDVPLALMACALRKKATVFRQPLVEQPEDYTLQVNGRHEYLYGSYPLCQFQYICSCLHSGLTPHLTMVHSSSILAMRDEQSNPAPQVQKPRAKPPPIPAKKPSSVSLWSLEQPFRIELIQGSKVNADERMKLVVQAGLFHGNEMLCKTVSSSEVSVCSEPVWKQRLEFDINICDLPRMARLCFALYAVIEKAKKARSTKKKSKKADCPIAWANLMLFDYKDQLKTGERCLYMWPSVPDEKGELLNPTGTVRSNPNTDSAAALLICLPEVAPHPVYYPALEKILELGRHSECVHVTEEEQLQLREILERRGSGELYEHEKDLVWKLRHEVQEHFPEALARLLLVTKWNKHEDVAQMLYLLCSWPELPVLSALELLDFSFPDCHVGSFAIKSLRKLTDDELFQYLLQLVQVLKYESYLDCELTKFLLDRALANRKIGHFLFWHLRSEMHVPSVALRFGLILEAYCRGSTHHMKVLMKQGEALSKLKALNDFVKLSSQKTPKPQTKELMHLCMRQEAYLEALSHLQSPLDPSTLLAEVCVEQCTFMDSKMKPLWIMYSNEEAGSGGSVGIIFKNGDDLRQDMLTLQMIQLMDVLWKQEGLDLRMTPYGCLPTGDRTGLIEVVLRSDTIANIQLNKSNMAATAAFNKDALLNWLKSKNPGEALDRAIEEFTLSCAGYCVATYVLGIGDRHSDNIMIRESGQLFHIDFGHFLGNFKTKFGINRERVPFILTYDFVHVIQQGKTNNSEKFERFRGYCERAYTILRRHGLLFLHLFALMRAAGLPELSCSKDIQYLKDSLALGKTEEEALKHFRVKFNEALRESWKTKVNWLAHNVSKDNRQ
- test_details: Inhibition of PI3K delta
experimental_readout: IC50 (µM)

Check out these entries, answers already filled in.
Notebook: `CC(=O)c1ccc2c(c1)N(c1nc3c(s1)C(=O)NC(C)(C)C3)CCO2` , IC50 read as 0.366

Notebook: `CC1(C)Cc2nc(N3CCOc4ccc(-c5cnc[nH]5)cc43)sc2C(=O)N1` , IC50 read as 0.081

Notebook: `CC1(C)Cc2nc(N3CCOc4ccc(-c5ccn[nH]5)cc43)sc2C(=O)N1` , IC50 read as 0.09

Notebook: `Cc1cccc2c1OCCN2c1nc2c(s1)C(=O)NC(C)(C)C2` , IC50 read as 15.3

Notebook: `Cc1ccc2c(c1)N(c1nc3c(s1)C(=O)NC(C)(C)C3)CCO2` , IC50 read as 0.357

P = Cn1ccnc1-c1ccc2c(c1)N(c1nc3c(s1)C(=O)NC(C)(C)C3)CCO2
Q = Cc1ccc(-c2ccc3c(c2)N(c2nc4c(s2)C(=O)NC(C)(C)C4)CCO3)cn1
Input: Which shows the larger IC50 value: P or Q ? // return label of chosen record
Output: P

1 = Cc1ccc2c(c1)OCCN2c1nc2c(s1)C(=O)NC(C)(C)C2
2 = COc1ccc2c(c1)OCCN2c1nc2c(s1)C(=O)NC(C)(C)C2
3 = CN(C)Cc1ccc2c(c1)N(c1nc3c(s1)C(=O)NC(C)(C)C3)CCO2
Input: Please list these compounds in decreasing order of IC50. Answer by writing out the labels in the requested order.
Output: 3, 1, 2
